Cited source for all entries: PubChem BioAssay AID1963977

Reported viability, T/C values for a set of compounds
- System: 624824-186-R-J3-PDC multicell spheroids, viability;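 also: luminescent signal used as a stand-in for spheroid viability; spheroids exposed to agents for seven days before luminescence read; percent viability relative to DMSO vehicle control wells taken as 100%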
- ASSAY PROCEDURE: Anticancer human tumor 624824-186-R-J3-PDC patient-derived colon adenocarcinoma cell line growth inhibition [PI3K]
- CONDITION DETAILS: second compound 0.00316 µM; first compound 10 µM; hits give low values
- Excerpt: Combinatorial screen of targeted agents with the PI3K inhibitors inavolisib, alpelisib, duvelisib, and copanlisib in multi-cell type tumor spheroids A high-throughput screen of multi-cell type tumor spheroids was designed to identify active combinations of targeted small molecules and PI3K pathway inhibitors. […] Compounds. […] If the clinical Cmax for an agent had not been determined, the highest concentration tested was 10 microM. […]
The figure you give is taken to be in %; do not add the unit.

Solved entries:
| COMPOUND | viability, T/C / % |
| --- | --- |
| CCCS(=O)(=O)Nc1ccc(F)c(C(=O)c2c[nH]c3ncc(-c4ccc(Cl)cc4)cc23)c1F + COc1c(OCCCN2CCOCC2)ccc2c3n(c(=NC(=O)c4cnc(N)nc4)nc12)CCN3 | 10.3 |
| CC1(C)CCC(CN2CCN(c3ccc(C(=O)NS(=O)(=O)c4ccc(NCC5CCOCC5)c([N+](=O)[O-])c4)c(Oc4cnc5[nH]ccc5c4)c3)CC2)=C(c2ccc(Cl)cc2)C1 + CC(Nc1ccc2c(c1)OCCn1cc(N3C(=O)OCC3C(F)F)nc1-2)C(N)=O | 47.3 |
| Cn1ncc(Cl)c1-c1cc(C(=O)NC(CN)Cc2cccc(F)c2)sc1Cl (stereo unspecified) + CC(Nc1ccc2c(c1)OCCn1cc(N3C(=O)OCC3C(F)F)nc1-2)C(N)=O | 80 |
| CC(Cn1ccc(-c2ccc(C#N)c(Cl)c2)n1)NC(=O)c1cc(C(C)O)[nH]n1 (stereo unspecified) + CC(Nc1ccc2c(c1)OCCn1cc(N3C(=O)OCC3C(F)F)nc1-2)C(N)=O | 103 |

Query: Request the reported viability, T/C associated with CNC(=O)c1ccc(N2C(=S)N(c3ccc(C#N)c(C(F)(F)F)c3)C(=O)C2(C)C)cc1F + COc1c(OCCCN2CCOCC2)ccc2c3n(c(=NC(=O)c4cnc(N)nc4)nc12)CCN3
Reply: 107

Query: Request the reported viability, T/C associated with Cn1nccc1Nc1nccc(-c2ccn(C(CO)c3ccc(Cl)c(F)c3)c(=O)c2)n1 (stereo unspecified) + COc1c(OCCCN2CCOCC2)ccc2c3n(c(=NC(=O)c4cnc(N)nc4)nc12)CCN3
Reply: 46.6
